- Test system: HepG2 (liver)
- ASSAY_REMARKS: Cytotoxicity, sulforhodamine B assay, HepG2
- Assay type: cell-based, human
- PARTICULARS: HepG2, Galactose media, day 11, four doses
RESULT_TYPE: CC50 (µM)
Your answer is read as µM, so omit the unit and give the number.

Request: // query CC50 value for entry `Nc1nc2c(ncn2[C@@H]2O[C@H](CO)[C@@H](O)[C@H]2F)c(=O)[nH]1`
Result: 112

###

Quick reference for % 2′-F product among some molecules
- TARGET_OF_ASSAY: UniProt O00411
- Sequence (O00411 42-1230): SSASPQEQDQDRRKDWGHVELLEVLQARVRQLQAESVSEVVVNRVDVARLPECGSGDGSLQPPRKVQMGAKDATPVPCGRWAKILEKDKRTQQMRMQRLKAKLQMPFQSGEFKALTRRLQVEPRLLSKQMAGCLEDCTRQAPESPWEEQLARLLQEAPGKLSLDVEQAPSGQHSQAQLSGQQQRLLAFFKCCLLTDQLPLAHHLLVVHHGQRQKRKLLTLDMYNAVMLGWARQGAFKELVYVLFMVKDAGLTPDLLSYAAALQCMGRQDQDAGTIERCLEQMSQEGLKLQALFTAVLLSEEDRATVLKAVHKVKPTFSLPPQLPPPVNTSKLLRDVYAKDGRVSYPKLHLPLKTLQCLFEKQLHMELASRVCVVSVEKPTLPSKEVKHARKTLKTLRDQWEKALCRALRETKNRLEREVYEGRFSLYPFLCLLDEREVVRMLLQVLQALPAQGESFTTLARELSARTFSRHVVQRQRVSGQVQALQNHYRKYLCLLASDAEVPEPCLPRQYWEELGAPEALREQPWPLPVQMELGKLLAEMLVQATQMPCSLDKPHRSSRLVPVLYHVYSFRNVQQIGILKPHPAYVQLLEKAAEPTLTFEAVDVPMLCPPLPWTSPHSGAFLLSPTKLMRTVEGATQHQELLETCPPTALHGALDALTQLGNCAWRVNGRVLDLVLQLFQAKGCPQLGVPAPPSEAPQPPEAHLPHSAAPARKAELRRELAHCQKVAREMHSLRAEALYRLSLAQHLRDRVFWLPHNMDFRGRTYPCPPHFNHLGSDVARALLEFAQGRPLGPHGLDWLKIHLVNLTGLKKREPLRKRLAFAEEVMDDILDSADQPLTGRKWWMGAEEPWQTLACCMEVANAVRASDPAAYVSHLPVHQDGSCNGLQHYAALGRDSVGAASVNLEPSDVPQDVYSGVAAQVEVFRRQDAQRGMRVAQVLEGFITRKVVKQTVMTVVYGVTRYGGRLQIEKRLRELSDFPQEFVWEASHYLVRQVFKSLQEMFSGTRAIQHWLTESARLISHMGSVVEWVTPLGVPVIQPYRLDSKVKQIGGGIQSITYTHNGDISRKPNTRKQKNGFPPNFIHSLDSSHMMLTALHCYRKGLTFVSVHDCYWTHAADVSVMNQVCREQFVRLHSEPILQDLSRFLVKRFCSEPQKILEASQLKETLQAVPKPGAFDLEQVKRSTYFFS
- ASSAY_REMARKS: POLRMT primer extension
- Format: biochemical
- PARTICULARS: F only
Marks after values point to notes of the source that are not given here.

Here are 4 molecules together with their reported answers.
MOLECULE: O=c1[nH]c(=O)n([C@@H]2O[C@H](COP(=O)(O)OP(=O)(O)OP(=O)(O)O)[C@@H](O)[C@@H]2F)cc1I [FIAU-TP, fialuridine triphosphate, reference compound]
TARGET_OF_ASSAY: UniProt O00411
RECORDED_VALUE: 21.0^a %
//
MOLECULE: Nc1ncnc2c1ncn2[C@@H]1O[C@H](COP(=O)(O)OP(=O)(O)OP(=O)(O)O)[C@@H](O)[C@H]1F
TARGET_OF_ASSAY: UniProt O00411
RECORDED_VALUE: 42.6^a %
//
MOLECULE: Nc1ccn([C@@H]2O[C@H](COP(=O)(O)OP(=O)(O)OP(=O)(O)O)[C@@H](O)[C@H]2F)c(=O)n1
TARGET_OF_ASSAY: UniProt O00411
RECORDED_VALUE: 58.7^a %
//
MOLECULE: Nc1nc2c(ncn2[C@@H]2O[C@H](COP(=O)(O)OP(=O)(O)OP(=O)(O)O)[C@@H](O)[C@H]2F)c(=O)[nH]1
TARGET_OF_ASSAY: UniProt O00411
RECORDED_VALUE: 78.9^a %

Below: the item to evaluate.
Request: So what does the record say about % 2′-F product for `O=c1ccn([C@@H]2O[C@H](COP(=O)(O)OP(=O)(O)OP(=O)(O)O)[C@@H](O)[C@H]2F)c(=O)[nH]1` ?
Result: 31.8^a %
